Exercise: state measured Test B disease control rating (wheat leaf rust) for each of the compounds provided.
System: Puccinia recondita
Experiment: TEST B: preventive spray on wheat seedlings, wheat leaf rust, disease rating
Type: in vivo
Conditions: 100 = 100% disease control, 0 = no control, concentration not marked in table
Answers are plain numbers, in %.

Smiles Data: Cc1ncccc1C(=O)NCc1ccc(Cl)nc1
Reading: 0
--
Smiles Data: O=C(NCc1ncc(C(F)(F)F)cc1Cl)c1cncc(Br)c1
Reading: 9

Now, please, on to the next compound.
According to the records, this compound `Cc1cc(Cl)c(C(=O)NCc2ncc(C(F)(F)F)cc2Cl)c(Cl)n1` displays Test B disease control rating (wheat leaf rust) of 8
